Test: viability loss in Vero cells – cytotoxicity control for Vif-APOBEC3G degradation inhibitor project, dose response (AID 1117358)
Settings: CellTiter-Glo ATP luminescence, 72 h; series mostly up to 40 µM
The whole screen tested about 2,300 compounds, of which about 160 (7%) were called active. A selection follows. Potency and affinity values are given separately.
Endpoint label: outcome

O=C(CSc1nnc(-c2cccnc2)n1Cc1ccco1)c1ccc(Br)cc1	inactive
O=C(c1cnn2c(C(F)F)cc(C3CC3)nc12)N1CCc2ccccc2C1	inactive
CCN1CCc2c(C#N)c(NCc3ccccc3)nc(N(CC)CC)c2C1	inactive
O=C(COC(=O)c1cc(-c2ccco2)nc2ccccc12)NCc1ccc2c(c1)OCO2	inactive
O=C(C/C=N/OCc1c(Cl)cccc1Cl)c1ccc(Cl)cc1	inactive

stdin: # lookup: outcome of O=C(NCC1CCCO1)c1cc(-c2ccco2)nc2ccccc12 (stereo not given)
stdout: inactive

stdin: # lookup: outcome of CC(C)c1ccc(NC(=O)C(c2ccccc2)N2CCC3(CC2)OCCO3)cc1 (stereo not given)
stdout: inactive

stdin: # lookup: outcome of "Cc1c(C(=O)Nc2ccc(Cl)cc2)c2ccccn2c1CCc1ccncc1"
stdout: inactive
